# study_target: Angiotensin II receptor (Rattus norvegicus) (UniProt P29089+P25095+P35351)
# assay_remarks: Inhibitory effect on AII (100 ng/kg iv)-induced pressor response after administration at 0.1 mg/kg po in conscious male Sprague-Dawley rats at 0.5 h.
# Assay type: functional, organism-based
# Design: dose 0.1 mg/kg
Would you mind telling me the reported inhibition of each entry?
One number for each entry, in %.

Solved entries:
- compound_structure_string: "CCOc1nc2cccc(C(=O)OCOC(C)=O)c2n1Cc1ccc(-c2ccccc2-c2nn[nH]n2)cc1"
  study_target: "Angiotensin II receptor (Rattus norvegicus) (UniProt P29089+P25095+P35351)"
  inhibition, %: 66
- compound_structure_string: "CCCCc1nc2cccc(C(=O)OCc3oc(=O)oc3C)c2n1Cc1ccc(-c2ccccc2-c2nn[nH]n2)cc1"
  study_target: "Angiotensin II receptor (Rattus norvegicus) (UniProt P29089+P25095+P35351)"
  inhibition, %: 32

Turning to the following molecule.
Task: Provide inhibition, recorded with Angiotensin II receptor (Rattus norvegicus) (UniProt P29089+P25095+P35351), of CCOc1nc2cccc(C(=O)OCOC(=O)C3CCCC3)c2n1Cc1ccc(-c2ccccc2-c2nn[nH]n2)cc1
Result: 7
